target: T1, human A-beta(1-40) peptide, monomeric (BAM) (human, biotin at the C-terminus in capture ELISA, SPR and TR-FRET; not biotinylated where coated directly (Example 7)); test: 42D4 TR-FRET assay (labelled ABII42D4)
T1 construct: synthetic peptide (Anaspec), TFA/HFIP treated to give monomer; also called monomeric A-beta
pIC50: −log10 of the molar value.

{"columns": ["binder", "prefixOperator", "pIC50"],
 "data": [
  ["ABII60A10-35GS-ABII42D4 (designed binder, biparatopic VHH construct) EVQLVESGGGLVQAGGSLRLSCAASGRTFNNYNMGWFRQAPGKEREFVAAVSRSGVSTYYADSVKGRFTISRDNAKNAVYLQMNSLKPEDTAIYYCGAAYRGTAINVRRSYDSWGQGTQVTVSSGGGGSGGGGSGGGGSGGGGSGGGGSGGGGSGGGGSEVQLVESGGGLVLAGGSLRLSCVHSGPTFSTDTMGWFRQAPGKEREFVAAVTWNSGRTNYADSVKGRFTVSRDNTRNAAYLQMSGLKDEDTAVYYCTAHRLVVGGTSVGDWRYWGQGTQVTVSS", "=", 10.26],
  ["ABII42D4-35GS-ABII60A10 (designed binder, biparatopic VHH construct) EVQLVESGGGLVLAGGSLRLSCVHSGPTFSTDTMGWFRQAPGKEREFVAAVTWNSGRTNYADSVKGRFTVSRDNTRNAAYLQMSGLKDEDTAVYYCTAHRLVVGGTSVGDWRYWGQGTQVTVSSGGGGSGGGGSGGGGSGGGGSGGGGSGGGGSGGGGSEVQLVESGGGLVQAGGSLRLSCAASGRTFNNYNMGWFRQAPGKEREFVAAVSRSGVSTYYADSVKGRFTISRDNAKNAVYLQMNSLKPEDTAIYYCGAAYRGTAINVRRSYDSWGQGTQVTVSS", "=", 10.30],
  ["Fab fragment of monoclonal antibody m266 (Fab, V domains shown, also called Fab266; m266Fab) VH: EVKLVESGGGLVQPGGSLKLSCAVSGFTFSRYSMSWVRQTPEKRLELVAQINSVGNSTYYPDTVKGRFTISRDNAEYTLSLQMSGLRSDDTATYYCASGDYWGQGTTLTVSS VL: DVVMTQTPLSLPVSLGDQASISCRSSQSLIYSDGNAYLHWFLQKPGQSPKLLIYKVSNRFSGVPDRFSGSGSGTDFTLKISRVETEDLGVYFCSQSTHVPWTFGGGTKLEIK", "<", 6.00]
]}
